Listing of entries alongside the reported IC50.
- TARGET ENTITY: Carboxy-terminal domain RNA polymerase II polypeptide A small phosphatase 1 (Homo sapiens, UniProt Q9GZU7)
- Sequence (Q9GZU7 whole entry): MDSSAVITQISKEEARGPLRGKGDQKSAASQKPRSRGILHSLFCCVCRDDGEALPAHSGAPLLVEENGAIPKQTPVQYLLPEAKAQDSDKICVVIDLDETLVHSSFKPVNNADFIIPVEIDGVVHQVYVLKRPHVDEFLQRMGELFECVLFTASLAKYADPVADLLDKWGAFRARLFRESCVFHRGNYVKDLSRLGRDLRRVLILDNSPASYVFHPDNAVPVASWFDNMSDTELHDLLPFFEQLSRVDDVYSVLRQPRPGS
- ASSAY METHOD TEXT: inhibitors of CTDSP1, concentration-response testing, biochemical assay, absorbance-based, actives from ultra-high-throughput screening (AID 540297)
- Format: functional
Active and inactive are the calls of the source.

Q: I have this compound here, C[C@H]1CN([C@@H](C)CO)C(=O)Cc2cc(NS(=O)(=O)c3cn(C)cn3)ccc2O[C@@H]1CN(C)C(=O)Nc1ccc(F)cc1 , and I need its recorded IC50.
Result: 33.7 µM (active)

* * *

- TARGET ENTITY: Cysteine protease ATG4B (Homo sapiens, UniProt Q9Y4P1);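 also: Fluorescence-based dose-response confirmation assay measuring inhibition of ATG4B activity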
- Sequence (Q9Y4P1 whole entry): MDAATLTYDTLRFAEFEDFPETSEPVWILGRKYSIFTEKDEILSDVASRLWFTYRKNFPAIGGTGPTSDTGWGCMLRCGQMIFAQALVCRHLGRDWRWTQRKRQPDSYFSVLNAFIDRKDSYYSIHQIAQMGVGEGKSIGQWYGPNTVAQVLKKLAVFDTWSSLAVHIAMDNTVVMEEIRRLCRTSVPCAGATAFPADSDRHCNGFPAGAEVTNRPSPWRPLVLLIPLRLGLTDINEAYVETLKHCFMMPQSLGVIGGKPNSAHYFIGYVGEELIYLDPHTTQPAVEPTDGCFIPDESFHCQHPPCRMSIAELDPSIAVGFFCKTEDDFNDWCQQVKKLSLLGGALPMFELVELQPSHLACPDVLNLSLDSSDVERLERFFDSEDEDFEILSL
- Format: functional
Activity calls are given as the source filed them.
Your response should consist of one outcome taken from y for active, n for inactive

Example results:
O=C(O)c1cc2c(cc1NC(=O)c1ccccc1OC(F)F)OCCCO2: y
CCOC(=O)c1sc(-c2ccccc2)cc1NC(=O)Nc1ccccc1: n
CCCc1cc(=O)[nH]c(SCc2cc(Cl)ccc2OC(F)F)n1: y

Next item in the queue.
Q: Would you mind telling me which call this test gave CC(/C=C1\SC(=S)N(CCCC(=O)Nc2ccc(C(=O)O)cc2)C1=O)=C\c1ccccc1 ?
Result: y

* * *

- TARGET ENTITY: UniProtKB Q9XUB2
- Sequence (Q9XUB2 whole entry): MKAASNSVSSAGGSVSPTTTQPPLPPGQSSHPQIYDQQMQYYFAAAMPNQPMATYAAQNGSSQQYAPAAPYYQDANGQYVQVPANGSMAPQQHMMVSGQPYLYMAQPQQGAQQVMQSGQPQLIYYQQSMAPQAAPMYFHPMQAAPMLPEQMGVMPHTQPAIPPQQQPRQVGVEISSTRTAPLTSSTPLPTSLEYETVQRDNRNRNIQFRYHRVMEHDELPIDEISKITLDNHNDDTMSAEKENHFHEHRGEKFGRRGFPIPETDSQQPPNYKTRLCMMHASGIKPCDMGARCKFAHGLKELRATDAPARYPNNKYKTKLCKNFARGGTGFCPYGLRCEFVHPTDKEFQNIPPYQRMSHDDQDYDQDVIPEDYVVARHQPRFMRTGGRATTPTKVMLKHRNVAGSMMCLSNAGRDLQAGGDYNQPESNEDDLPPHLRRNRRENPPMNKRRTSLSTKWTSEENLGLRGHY
- ASSAY METHOD TEXT: MEX-5/TCR-2 RNA interaction inhibitors, dose response, biochemical, C. elegans, fluorescence polarization (AID 1960)
Activity calls are given as the source filed them.
READOUT: EC50

CCOC(=O)c1ccc2c(c1)C1C=CCC1C(C(=O)OCC)N2 (configuration not stated): > 300 µM (not active)
Cc1cc(C=C2C(=O)NC(=O)NC2=O)c(C)n1-c1cccnc1: 36.7 µM (inconclusive)
CCOc1ccc(S(=O)(=O)Nc2cc(Sc3nnc[nH]3)c3oc(=O)sc3c2)cc1: 14.6 µM (active)
CCOCCCn1/c(=N/C(=O)c2ccc(OC)c(OC)c2)c(C#N)cc2c(=O)n3cccc(C)c3nc21: 35.4 µM (active)
Cc1cccc2cc3c(N)c(C(=O)Nc4ccc(N5CCOCC5)cc4)sc3nc12: > 300 µM (not active)
COc1ccc(/C=c2\sc3nc(=O)c(C)nn3c2=O)c(OC)c1: 88 µM (active)

Now take the following compound into account.
Q: I have this compound here, O=C1c2cccc3c(N4CCCCC4)ccc(c23)C(=O)N1c1ccccn1 , and I need its recorded EC50.
Result: 5.26 µM (inconclusive)
